# Test system: P. aeruginosa
# Experimental Details: AK assay 384-well format, Prestwick library screening
# Format: cell-based, Pseudomonas aeruginosa
# Measurement Setup: Pseudomonas aeruginosa, 3 h; 50 μM final drug concentration; 384-well format; cutoff for positive-scoring molecules 3-fold increase; read-out: AK-based Prestwick Library Screening Results, P. aeruginosa (increase in extracellular AK activity)
Structures can show the parent of a compound that is named as a salt.
This listing pairs compounds with measured fold induction at 50 µM.
Answer with the value's number alone.

CCCCNc1ccc(C(=O)OCCOCCOCCOCCOCCOCCOCCOCCOCCOC)cc1 [Benzonatate]; 0.6
NC(=O)NC1NC(=O)NC1=O (centres unmarked); 0.3
COc1ccc(OC)c(C(O)CNC(=O)CN)c1 (centres unmarked) [Midodrine hydrochloride]; 0.9
Clc1ccccc1CN1CCc2sccc2C1 [Ticlopidine hydrochloride]; 1.1

Now consider the entry below.
Lab note: CC1(C)S[C@@H]2[C@H](NC(=O)[C@H](N)c3ccccc3)C(=O)N2[C@H]1C(=O)O [Ampicillin trihydrate] gave fold induction at 50 µM of 0.7
